Kindly state Kd for each of the entries shown.
B1: GFP aptamer (parent)
chain: GCUUCUGGACUGCGAUGGGAGCACGAAACGUCGUGGCGCAAUUGGGUGGGGAAAGUCCUUAAAAGAGGGCCACCACAGAAGC

Variants of: B1
Assay: HiTS-RAP
Conditions: with EGFP
Answers are plain numbers, in nM.

| mutantLabel | Kd (nM) |
| --- | --- |
| G78C | 43.8 |
| U16C | 6.81 |
| A20G A28G | 15.5 |

Give one value of Kd per listed variant.
1. A72U
2. U43G
3. C24U G33A

1. 17.7
2. 19.5
3. 5.72
